# subject-of-test: human MRGPRX2 (Homo sapiens)
# protocol-text: Ca2+ mobilization assay (FLIPR TETRA): inhibition of Cortistatin-14 mediated MRGPRX2 activation
assay-metric: IC50

Query string: Supply IC50 value. Item: C[C@@H](C(=O)Nc1ccc(OCC2CC2)cn1)N1CCC(F)(F)[C@@H](c2c[nH]c(=O)c(N)c2)C1
Result string: 10 to 100 nM

Query string: Please give the documented IC50 of C[C@@H](C(=O)Nc1ccc(OCC2CC2)nn1)N1CCC(F)(F)C(c2c[nH]c(=O)c(CO)c2)C1 (some centres unmarked)
Result string: 100 to 3160 nM

Query string: Please report IC50 for the following molecule: C[C@@H](C(=O)Nc1ccc(Oc2ccc(F)cn2)cn1)N1CCC(F)(F)[C@@H](c2c[nH]c(=O)c(CN)c2)C1
Result string: ≤ 10 nM

Query string: Give IC50 for CC(C(=O)Nc1ccc(Oc2ccc(F)cc2)cn1)N1CCC(F)(F)C(c2c[nH]c(=O)c(CN(C)C)c2)C1 (centres unmarked)
Result string: 10 to 100 nM

Query string: Read off the recorded IC50 for COCCNCc1cc(C2CN(C(C)C(=O)Nc3ccc(Oc4ccc(F)cc4)cn3)CCC2(F)F)c[nH]c1=O (centres unmarked)
Result string: ≤ 10 nM

Query string: Look up IC50 of C[C@@H](C(=O)Nc1ccc(C2CC2)cn1)N1CCC(F)(F)[C@@H](c2c[nH]c(=O)cn2)C1 and report it.
Result string: 100 to 3160 nM

Query string: Look up IC50 of C[C@@H](C(=O)Nc1ccc(Oc2ccc(F)cn2)cn1)N1CCC(F)(F)[C@@H](c2cc[n+]([O-])cc2)C1 and report it.
Result string: 10 to 100 nM

Query string: Tell me IC50 reported for CC(C(=O)Nc1ccc(F)cn1)N1CCC(F)(F)C(c2c[nH]c(=O)c(CS(C)(=O)=O)c2)C1 (centres unmarked)
Result string: 100 to 3160 nM

Query string: Please give measured IC50 of the following entry: C[C@@H](C(=O)Nc1ccc(Oc2ncc(F)cc2F)cn1)N1CCC(F)(F)[C@@H](c2cc[n+]([O-])cc2)C1
Result string: 10 to 100 nM

Query string: Read the entry C[C@@H](C(=O)Nc1ccc(OCC2CC2)cn1)N1CCC[C@@H](c2c[nH]c(=O)cc2C(F)(F)F)C1 (single isomer, unassigned) and write its reported IC50.
Result string: 100 to 3160 nM

Query string: Look up and state reported IC50 for C[C@@H](C(=O)Nc1ccc(Cl)cn1)N1CCC[C@@H](c2ccc(=O)n(CC(F)(F)F)c2)C1 (single isomer, unassigned)
Result string: 100 to 3160 nM

Query string: Check the records and state IC50 for C[C@@H](C(=O)Nc1ccc(Oc2ccc(F)cc2)cn1)N1CCC(F)(F)[C@@H](c2c[nH]c(=O)c(C(N)=O)c2)C1
Result string: ≤ 10 nM

Query string: Name the recorded IC50 of the molecule listed here: C[C@@H]1C[C@@H](c2ccc(=O)[nH]c2)CN([C@@H](C)C(=O)Nc2ccc(Cl)cn2)C1
Result string: 3160 to 31600 nM

Query string: For the molecule C[C@@H](C(=O)Nc1ccc(OCc2ncco2)cn1)N1CCC(F)(F)[C@@H](c2ccc(=O)[nH]c2)C1 , report IC50.
Result string: 100 to 3160 nM

###

Record form. Attribute: pIC50. Fill in for each entry.
# subject-of-test: human MRGPRX2 (Homo sapiens, UniProt Q96LB1)
# protocol-text: Ca2+ mobilization assay (FLIPR TETRA): inhibition of Cortistatin-14 mediated MRGPRX2 activation
pIC50: −log10 of the molar value.

Query string: Return value of pIC50 for input CC(C(=O)Nc1ccc(Oc2ccc(F)cc2)cn1)C1CCC(F)(F)C(c2ccc(=O)[nH]c2)C1 (stereo not shown) , no commentary.
Result string: ≥ 8.00

Query string: Give pIC50 for CC(C(=O)Nc1ccc(-c2ccn(C)n2)cn1)N1CCC(F)(F)[C@@H](c2ccc(=O)[nH]c2)C1 (stereo partly shown)
Result string: 4.50 to 5.50

Query string: Write down pIC50 measured for item C[C@@H](C(=O)Nc1ccc(Oc2ncccc2F)cn1)N1CCC(F)(F)[C@@H](c2cc[n+]([O-])cc2)C1
Result string: 7.00 to 8.00

Query string: Answer with the recorded pIC50 of Cc1cc(C2CN([C@@H](C)C(=O)Nc3ccc(F)cn3)CCC2(F)F)cc[n+]1[O-] (stereo partly shown) only.
Result string: 5.50 to 7.00

Query string: Tell me pIC50 reported for CC(C(=O)Nc1ncc(Oc2ccc(F)cc2)cc1F)N1CCC(F)(F)[C@@H](c2ccc(=O)[nH]c2)C1 (stereo partly shown)
Result string: 7.00 to 8.00

Query string: Find the measured pIC50 of C[C@@H](C(=O)Nc1ccc(Oc2ncc(F)cc2F)cn1)[C@H]1CCC[C@@H](c2ccc(=O)[nH]c2)C1 and report it.
Result string: ≥ 8.00

Query string: Respond only with pIC50 recorded for C[C@@H](C(=O)Nc1ccc(Oc2ccc(F)cc2F)cn1)N1CCC(F)(F)[C@@H](c2cc[n+]([O-])c(C(N)=O)c2)C1 (single isomer, unassigned)
Result string: ≥ 8.00

###

For each of the molecules below, state its pIC50.
# subject-of-test: human MRGPRX2 (Homo sapiens, UniProt Q96LB1)
# Sequence (Q96LB1 1-330): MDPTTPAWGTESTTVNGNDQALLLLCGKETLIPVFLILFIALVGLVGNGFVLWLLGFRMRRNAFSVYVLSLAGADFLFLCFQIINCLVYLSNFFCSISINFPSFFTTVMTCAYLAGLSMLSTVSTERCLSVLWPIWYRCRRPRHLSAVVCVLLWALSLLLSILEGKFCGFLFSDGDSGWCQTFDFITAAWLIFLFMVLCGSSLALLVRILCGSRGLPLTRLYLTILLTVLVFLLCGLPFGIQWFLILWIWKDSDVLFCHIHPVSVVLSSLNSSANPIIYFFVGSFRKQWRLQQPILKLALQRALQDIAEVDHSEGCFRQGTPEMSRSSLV
# protocol-text: Ca2+ mobilization assay (FLIPR TETRA): inhibition of Cortistatin-14 mediated MRGPRX2 activation
pIC50: −log10 of the molar value.

Query string: Given the molecule CC(C(=O)Nc1ccc(Cc2cccnc2)cn1)N1CCC(F)(F)[C@@H](c2ccc(=O)[nH]c2)C1 (stereo partly shown) , write its reported pIC50.
Result string: 4.50 to 5.50

Query string: For the molecule CC(C(=O)Nc1ccc(Oc2ccc(F)cc2)nn1)N1CCC(F)(F)[C@@H](c2ccc(=O)[nH]c2)C1 (stereo partly shown) , give its reported pIC50.
Result string: 5.50 to 7.00

Query string: Tell me its pIC50 given COc1ccc(NC(=O)C(C)N2CCC(F)(F)[C@@H](c3ccc(=O)[nH]c3)C2)nc1 (stereo partly shown) as the entry.
Result string: 4.50 to 5.50

Query string: # return recorded pIC50 for input C[C@@H](C(=O)Nc1ccc(OCC2CC2)cn1)N1CCC(F)(F)[C@@H](c2ccc(=O)[nH]n2)C1
Result string: 7.00 to 8.00

Query string: Kindly indicate its recorded pIC50. Item: C[C@@H](C(=O)Nc1ccc(Cl)cn1)N1CCC(F)(F)[C@@H](c2c[nH]c(=O)cn2)C1
Result string: 5.50 to 7.00

Query string: Identify measured pIC50 corresponding to C[C@@H](C(=O)Nc1ccc(Oc2cc(F)c(F)cc2F)cn1)N1CCC(F)(F)[C@@H](c2cc[n+]([O-])cc2)C1
Result string: ≥ 8.00

Query string: Look up and report measured pIC50 for this entry: C[C@@H](C(=O)Nc1ccc(OCC2CC2)nn1)N1CCC(F)(F)[C@@H](c2c[nH]c(=O)c(CN)c2)C1
Result string: 7.00 to 8.00

Query string: // Input: CC(C(=O)Nc1ccc(Oc2ccc(F)cc2)cn1)N1CCC(F)(F)C(c2c[nH]c(=O)c(CN3CCOCC3)c2)C1 (stereo not shown) . Output its pIC50 only.
Result string: 7.00 to 8.00

Query string: Note down pIC50 recorded for C[C@@H](C(=O)Nc1ccc(-c2ccccc2)cn1)N1CCC(F)(F)[C@@H](c2ccc(=O)[nH]c2)C1
Result string: 5.50 to 7.00

Query string: Fill in reported pIC50 for this entry: C[C@@H](C(=O)Nc1ccc(CC2CCC2)cn1)N1CCC(F)(F)[C@@H](c2ccc(=O)[nH]c2)C1
Result string: 7.00 to 8.00

Query string: Answer with reported pIC50 of CC(C(=O)Nc1ccc(Oc2ccccc2)cn1)N1CCC(F)(F)C(c2cc[n+]([O-])cc2)C1 (stereo not shown)
Result string: ≥ 8.00

Query string: Provide one value: measured pIC50 of COc1cccc(Oc2ccc(NC(=O)C(C)N3CCC(F)(F)[C@@H](c4ccc(=O)[nH]c4)C3)nc2)n1 (stereo partly shown)
Result string: 7.00 to 8.00

Query string: Note pIC50 for the molecule shown: C[C@@H](C(=O)Nc1ccc(OC2CCC2)nn1)N1CCC(F)(F)[C@@H](c2ccc(=O)[nH]c2)C1
Result string: 5.50 to 7.00

Query string: Could you please provide reported pIC50 for CC(C(=O)Nc1ccc(Oc2ccccc2C#N)nn1)N1CCC(F)(F)[C@@H](c2ccc(=O)[nH]c2)C1 (stereo partly shown) ? Thanks!
Result string: 4.50 to 5.50

Query string: Dear colleague, please send me the reported pIC50 for C[C@@H](C(=O)Nc1ccc(F)cn1)N1CCC(F)(F)[C@@H](c2c[nH]c(=O)cn2)C1 when you can.
Result string: 7.00 to 8.00

Query string: Answer with the recorded pIC50 for the molecule listed here: CC(C(=O)Nc1ccc(C(O)c2ccc(F)cc2)cn1)N1CCC(F)(F)[C@@H](c2cc[n+]([O-])cc2)C1 (stereo partly shown)
Result string: 4.50 to 5.50

Query string: # return recorded pIC50 for entry CC(C(=O)Nc1ccc(Oc2ccccc2)cn1)N1CCC(F)(F)C(c2c[nH]c(=O)c(N)c2)C1 (stereo not shown)
Result string: 7.00 to 8.00

Query string: Using known records, supply pIC50 for CC(C(=O)Nc1ccc(-c2cccs2)cn1)N1CCC(F)(F)[C@@H](c2ccc(=O)[nH]c2)C1 (stereo partly shown)
Result string: 5.50 to 7.00

Query string: Recall and state the measured pIC50 for CC(C(=O)Nc1cnc(Oc2ccc(F)cc2)cn1)N1CCC(F)(F)C(c2c[nH]c(=O)c(C#N)c2)C1 (stereo not shown) .
Result string: 5.50 to 7.00

Query string: State its pIC50: C[C@@H](C(=O)Nc1ccc(Cl)cn1)N1CCC[C@@H](c2ccc(=O)n(Cc3ccccc3)c2)C1 (single isomer, unassigned)
Result string: 5.50 to 7.00

Query string: Tell us which pIC50 value is on record for C[C@@H](C(=O)Nc1cnc(Oc2ccc(F)cc2F)cn1)[C@H]1CCC(F)(F)[C@@H](c2cc[n+]([O-])cc2)C1
Result string: ≥ 8.00

Query string: Please give the documented pIC50 of C[C@@H](C(=O)Nc1ccc(OCC2CC2)cn1)N1CCC(F)(F)[C@@](C)(c2ccc(=O)[nH]c2)C1
Result string: 5.50 to 7.00

Query string: Provide measured pIC50 value, entry: C[C@@H](C(=O)Nc1ccc(Oc2ccc(F)cc2F)cn1)N1CCC(F)(F)[C@@H](c2cc[n+]([O-])cc2)C1
Result string: ≥ 8.00

Query string: Tell me pIC50 reported for COc1ccc(NC(=O)C(C)N2CCC(F)(F)[C@@H](c3ccc(=O)[nH]c3)C2)nn1 (stereo partly shown)
Result string: 4.50 to 5.50

Query string: # return recorded pIC50 for input CCn1cc(C2CN([C@@H](C)C(=O)Nc3ccc(F)cn3)CCC2(F)F)ccc1=O (stereo partly shown)
Result string: 5.50 to 7.00

Query string: Kindly indicate its recorded pIC50. Item: C[C@@H](C(=O)Nc1cnc(Oc2ccc(F)cc2)cn1)N1CCC(F)(F)[C@@H](c2c[nH]c(=O)c(CN)c2)C1
Result string: 7.00 to 8.00

Query string: Provide one value: measured pIC50 of C[C@@H](C(=O)Nc1ccc(Oc2c(F)cc(F)cc2F)cn1)N1CCC(F)(F)[C@@H](c2ccc(=O)[nH]c2)C1
Result string: ≥ 8.00

Query string: Input C[C@@H](C(=O)Nc1ccc(F)cn1)N1CCC(F)(F)[C@@H](c2ccc(=O)n(Cc3ccccc3)c2)C1 , output reported pIC50.
Result string: ≥ 8.00

Origin of measurements: patent US11976057B2
